# Tested on: 857933-349-R-J2-PDC complex spheroids, viability
# method.summary: Anticancer human tumor 857933-349-R-J2-PDC patient-derived colon adenocarcinoma cell line growth inhibition [GQUAD]
# settings: second compound 3.16 µM; first compound 3.16 µM; hits give low values
Classify: T when viability, T/C is strictly less than 30%; F when viability, T/C is not.

Consider the following illustrative entries.
molecule	target.under.test	group.label
C=CCn1c(=O)c2cnc(Nc3ccc(N4CCN(C)CC4)cc3)nc2n1-c1cccc(C(C)(C)O)n1 + CN(C)c1ccc(Nc2c3ccc(NC(=O)CCN4CCCC4)cc3nc3cc(NC(=O)CCN4CCCC4)ccc23)cc1	857933-349-R-J2-PDC complex spheroids, viability	F
O=C(c1cc(Cc2n[nH]c(=O)c3ccccc23)ccc1F)N1CCN(C(=O)C2CC2)CC1 + Cc1[nH]c2ccc(F)cc2c1-c1nc2c3cccnc3c3ncccc3c2[nH]1	857933-349-R-J2-PDC complex spheroids, viability	F
CC(=O)O[C@H]1C(=O)[C@@]2(C)[C@H]([C@H](OC(=O)c3ccccc3)[C@]3(O)C[C@H](OC(=O)[C@H](O)[C@@H](NC(=O)c4ccccc4)c4ccccc4)C(C)=C1C3(C)C)[C@]1(OC(C)=O)CO[C@@H]1C[C@@H]2O + Cc1[nH]c2ccc(F)cc2c1-c1nc2c3cccnc3c3ncccc3c2[nH]1	857933-349-R-J2-PDC complex spheroids, viability	T
Nc1ccn(C2OC(CO)C(O)C2(F)F)c(=O)n1 (stereo not given) + CN(C)c1ccc(Nc2c3ccc(NC(=O)CCN4CCCC4)cc3nc3cc(NC(=O)CCN4CCCC4)ccc23)cc1	857933-349-R-J2-PDC complex spheroids, viability	T
O=C(NO)c1cnc(N2CCN(S(=O)(=O)c3ccc4ccccc4c3)CC2)nc1 + CN(C)c1ccc(Nc2c3ccc(NC(=O)CCN4CCCC4)cc3nc3cc(NC(=O)CCN4CCCC4)ccc23)cc1	857933-349-R-J2-PDC complex spheroids, viability	T

Req: Find out if reported viability, T/C for C=CCn1c(=O)c2cnc(Nc3ccc(N4CCN(C)CC4)cc3)nc2n1-c1cccc(C(C)(C)O)n1 + Cc1[nH]c2ccc(F)cc2c1-c1nc2c3cccnc3c3ncccc3c2[nH]1 is less than 30%
Resp: T

Req: Lab log: compare recorded viability, T/C with 30%; is it strictly lower for COc1ncnc(C2CC2)c1-c1ncc2cnn(Cc3ccc(-c4nc(C(F)(F)F)cn4C(C)C)cc3)c2n1 + Cc1cnc(CNC(=O)c2c(=O)c3ccc(N4CCCN(C)CC4)nc3n3c2sc2ccccc23)cn1 ?
Resp: T

Req: Given the entry O=C(NO)c1cnc(N2CCN(S(=O)(=O)c3ccc4ccccc4c3)CC2)nc1 + Cc1cnc(CNC(=O)c2c(=O)c3ccc(N4CCCN(C)CC4)nc3n3c2sc2ccccc23)cn1 , would its reported viability, T/C be below 30%?
Resp: T

Req: I'd appreciate it if you could check whether CC(C)(O)C1CCC(Nc2ccc3ncc(-c4cccc(C(F)(F)F)c4)n3n2)CC1 (stereo not given) + Cc1cnc(CNC(=O)c2c(=O)c3ccc(N4CCCN(C)CC4)nc3n3c2sc2ccccc23)cn1 has viability, T/C smaller than 30%.
Resp: T

Req: Is 30% strictly greater than the molecule's reported viability, T/C? molecule: COc1ccc([C@@H](O)c2cc(-c3ncnc4cc(N5CCOCC5)ccc34)c(F)cc2Cl)nn1 + CN(C)c1ccc(Nc2c3ccc(NC(=O)CCN4CCCC4)cc3nc3cc(NC(=O)CCN4CCCC4)ccc23)cc1
Resp: F

====

# System: 857933-349-R-J2-PDC complex spheroids, viability
# method.summary: Anticancer human tumor 857933-349-R-J2-PDC cell line growth inhibition [GQUAD];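 note: spheroids exposed to compounds for one week before readout; percent viability relative to vehicle DMSO wells taken as 100%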
# settings: second compound 0.0316 µM; first compound 0.00999 µM; hits give low values
measurement.label: viability, T/C (%)
One number for each entry, in %.

compound	viability, T/C [%]
Cn1ncnc1[C@H]1c2n[nH]c(=O)c3cc(F)cc(c23)N[C@@H]1c1ccc(F)cc1 + Cc1[nH]c2ccc(F)cc2c1-c1nc2c3cccnc3c3ncccc3c2[nH]1	103
Cn1ncnc1[C@H]1c2n[nH]c(=O)c3cc(F)cc(c23)N[C@@H]1c1ccc(F)cc1 + Cc1cnc(CNC(=O)c2c(=O)c3ccc(N4CCCN(C)CC4)nc3n3c2sc2ccccc23)cn1	93.4
CCc1c2c(nc3ccc(O)cc13)-c1cc3c(c(=O)n1C2)COC(=O)[C@]3(O)CC + Cc1[nH]c2ccc(F)cc2c1-c1nc2c3cccnc3c3ncccc3c2[nH]1	51.5
CCc1c2c(nc3ccc(O)cc13)-c1cc3c(c(=O)n1C2)COC(=O)[C@]3(O)CC + Cc1cnc(CNC(=O)c2c(=O)c3ccc(N4CCCN(C)CC4)nc3n3c2sc2ccccc23)cn1	41.9
CC[C@@]1(O)C(=O)OCc2c1cc1n(c2=O)Cc2cc3c(CN(C)C)c(O)ccc3nc2-1 + CN(C)c1ccc(Nc2c3ccc(NC(=O)CCN4CCCC4)cc3nc3cc(NC(=O)CCN4CCCC4)ccc23)cc1	101

Could you now consider this next compound?
Req: State the recorded viability, T/C for this entry: Cc1[nH]c2ccccc2c1CCNCc1ccc(/C=C/C(=O)NO)cc1 + CN(C)c1ccc(Nc2c3ccc(NC(=O)CCN4CCCC4)cc3nc3cc(NC(=O)CCN4CCCC4)ccc23)cc1
Resp: 109

====

# Test system: 857933-349-R-J2-PDC complex spheroids, viability
# method.summary: Anticancer human tumor 857933-349-R-J2-PDC cell line growth inhibition [GQUAD];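 note: spheroids exposed to compounds for one week before readout; percent viability relative to vehicle DMSO wells taken as 100%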
# settings: second compound 3.16 µM; first compound 0.0999 µM; hits give low values
measurement.label: viability, T/C

Please review the following examples before continuing.
molecule	viability, T/C
Cc1[nH]c2ccccc2c1CCNCc1ccc(/C=C/C(=O)NO)cc1 + CN(C)c1ccc(Nc2c3ccc(NC(=O)CCN4CCCC4)cc3nc3cc(NC(=O)CCN4CCCC4)ccc23)cc1	91.7%
Cn1ncnc1[C@H]1c2n[nH]c(=O)c3cc(F)cc(c23)N[C@@H]1c1ccc(F)cc1 + Cc1[nH]c2ccc(F)cc2c1-c1nc2c3cccnc3c3ncccc3c2[nH]1	114%

For each entry beneath this line, provide reported viability, T/C.
1. Cc1[nH]c2ccccc2c1CCNCc1ccc(/C=C/C(=O)NO)cc1 + Cc1cnc(CNC(=O)c2c(=O)c3ccc(N4CCCN(C)CC4)nc3n3c2sc2ccccc23)cn1
2. CC[C@@]1(O)C(=O)OCc2c1cc1n(c2=O)Cc2cc3c(CN(C)C)c(O)ccc3nc2-1 + Cc1[nH]c2ccc(F)cc2c1-c1nc2c3cccnc3c3ncccc3c2[nH]1
3. CC[C@@]1(O)C(=O)OCc2c1cc1n(c2=O)Cc2cc3c(CN(C)C)c(O)ccc3nc2-1 + CN(C)c1ccc(Nc2c3ccc(NC(=O)CCN4CCCC4)cc3nc3cc(NC(=O)CCN4CCCC4)ccc23)cc1

Resp:
1. 0.55%
2. 53.4%
3. 77.8%

====

# System: 857933-349-R-J2-PDC complex spheroids, viability
# method.summary: Anticancer human tumor 857933-349-R-J2-PDC cell line growth inhibition [GQUAD];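 note: spheroids exposed to compounds for one week before readout; percent viability relative to vehicle DMSO wells taken as 100%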
# settings: second compound 10 µM; first compound 0.0316 µM; hits give low values
measurement.label: viability, T/C (%)
Answers are plain numbers, in %.

Here's what some known entries look like.
molecule	measurement.label	units.symbol	value
CC1COCCN1c1cc(C2(S(C)(=N)=O)CC2)nc(-c2ccnc3[nH]ccc23)n1 (stereo not given) + Cc1[nH]c2ccc(F)cc2c1-c1nc2c3cccnc3c3ncccc3c2[nH]1	viability, T/C	%	104
COc1cccc2c1C(=O)c1c(O)c3c(c(O)c1C2=O)CC(O)(C(=O)CO)CC3OC1CC(N)C(O)C(C)O1 (stereo not given) + CN(C)c1ccc(Nc2c3ccc(NC(=O)CCN4CCCC4)cc3nc3cc(NC(=O)CCN4CCCC4)ccc23)cc1	viability, T/C	%	70.7
CC(=O)O[C@H]1C(=O)[C@@]2(C)[C@H]([C@H](OC(=O)c3ccccc3)[C@]3(O)C[C@H](OC(=O)[C@H](O)[C@@H](NC(=O)c4ccccc4)c4ccccc4)C(C)=C1C3(C)C)[C@]1(OC(C)=O)CO[C@@H]1C[C@@H]2O + CN(C)c1ccc(Nc2c3ccc(NC(=O)CCN4CCCC4)cc3nc3cc(NC(=O)CCN4CCCC4)ccc23)cc1	viability, T/C	%	54.9
CC1COCCN1c1cc(C2(O)CC3CCC(C2)O3)c2cnn(-c3ccn[nH]3)c2n1 (stereo not given) + Cc1[nH]c2ccc(F)cc2c1-c1nc2c3cccnc3c3ncccc3c2[nH]1	viability, T/C	%	77.4

Now consider a different molecule.
Req: Reported viability, T/C for CC[C@@]1(O)C(=O)OCc2c1cc1n(c2=O)Cc2cc3c(CN(C)C)c(O)ccc3nc2-1 + Cc1[nH]c2ccc(F)cc2c1-c1nc2c3cccnc3c3ncccc3c2[nH]1 : what is it?
Resp: 73.7
